# System: adenosine A3 receptor (Homo sapiens (Human), UniProt P0DMS8)
# Sequence (P0DMS8 whole entry): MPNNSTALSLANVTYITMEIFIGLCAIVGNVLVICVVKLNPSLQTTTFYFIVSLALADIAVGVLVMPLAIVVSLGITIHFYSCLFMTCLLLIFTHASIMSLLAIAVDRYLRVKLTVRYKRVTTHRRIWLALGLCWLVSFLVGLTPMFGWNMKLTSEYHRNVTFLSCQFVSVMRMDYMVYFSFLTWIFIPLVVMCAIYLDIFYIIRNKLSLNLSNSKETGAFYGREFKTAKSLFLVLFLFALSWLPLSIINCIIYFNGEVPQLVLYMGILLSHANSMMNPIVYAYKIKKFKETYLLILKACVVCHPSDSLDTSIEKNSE
# Assay Method Text: Adenosine receptor activity assay (Table 1), A3 cAMP
# Format: biochemical
pIC50: −log10 of the molar value.
Measure: pIC50

Solved cases below.
C[C@H](Nc1nc(C(=O)N2CC(CNC(=O)C(C)(C)C)C2)c2sccc2n1)c1cncc(F)c1 [Example Z529]    < 6.30
C[C@H](Nc1nc(C(=O)NCCc2ccc(O)cc2)c2sccc2n1)c1ccccn1 [Example Z410]    < 6.30
CC(C)OC(=O)NC1CN(C(=O)c2nc(N[C@@H](C)c3cncc(F)c3)nc3ccsc23)C1 [Example Z510]    < 6.30

-- ask Provide measured pIC50 value, entry: Cc1cc2nc(N[C@@H](C)c3cncc(F)c3)nc(C(=O)N3CC(NC(=O)C4CCC4)C3)c2s1 [Example Z542]
-- reply 7.00 to 7.30

###

# System: adenosine A2A receptor (Homo sapiens (Human), UniProt P29274)
# Sequence (P29274 whole entry): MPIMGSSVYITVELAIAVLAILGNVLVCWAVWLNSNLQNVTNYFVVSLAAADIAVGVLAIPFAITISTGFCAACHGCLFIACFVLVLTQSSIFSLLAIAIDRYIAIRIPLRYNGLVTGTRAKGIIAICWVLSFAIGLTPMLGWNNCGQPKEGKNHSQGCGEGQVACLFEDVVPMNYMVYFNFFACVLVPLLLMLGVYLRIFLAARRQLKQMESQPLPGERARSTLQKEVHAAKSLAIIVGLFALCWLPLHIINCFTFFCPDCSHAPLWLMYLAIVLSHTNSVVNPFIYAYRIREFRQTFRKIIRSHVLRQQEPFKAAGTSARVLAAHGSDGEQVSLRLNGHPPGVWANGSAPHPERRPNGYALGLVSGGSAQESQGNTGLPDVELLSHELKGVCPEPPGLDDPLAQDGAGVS
# Assay Method Text: Adenosine receptor activity assay (Table 1), A2A activity
# Assay type: biochemical
# Test Settings: read-out: Ave A2A cAMP IC50
pIC50: −log10 of the molar value.
Measure: pIC50

Solved cases below.
O=C(NCCO)c1nc(NCc2cncc(F)c2)nc2ccsc12    < 6.30
Cc1cc2nc(N[C@@H](C)c3cccnc3)nc(C(=O)N[C@H]3C[C@@H](O)C3)c2s1    < 6.30

-- ask Provide measured pIC50 value, entry: "Cc1cc2nc(N[C@@H](C)c3cncc(F)c3)nc(C(=O)NCCc3ccc(O)cc3)c2s1"
-- reply 6.30 to 7.00

-- ask Provide measured pIC50 value, entry: "C[C@H](Nc1nc(C(=O)NCc2cncc(F)c2)c2sccc2n1)c1cccnc1"
-- reply 6.30 to 7.00

-- ask Provide measured pIC50 value, entry: "COc1ccc(CNc2nc(C(=O)NCc3cccnc3)c3sccc3n2)cn1"
-- reply 6.30 to 7.00

-- ask Provide measured pIC50 value, entry: "C[C@H](Nc1nc(C(=O)NCCc2cccc(C#N)c2)c2sccc2n1)c1cncc(F)c1"
-- reply < 6.30

-- ask Provide measured pIC50 value, entry: "Nc1cc2nc(NCc3cccnc3)nc(C(=O)N3CCCC3)c2s1"
-- reply < 6.30

-- ask Provide measured pIC50 value, entry: CCC(NC(=O)c1nc(NC(CC)c2cccnc2)nc2ccsc12)c1cccnc1 (centres unmarked)
-- reply < 6.30

-- ask Provide measured pIC50 value, entry: "O=C(c1nc(NCc2cccc(Cl)c2)nc2ccsc12)N1CCC1"
-- reply 6.30 to 7.00

-- ask Provide measured pIC50 value, entry: "CO[C@@H]1CCN(C(=O)c2nc(N[C@@H](C)c3cncc(F)c3)nc3cc(C)sc23)C1"
-- reply 7.00 to 7.30

-- ask Provide measured pIC50 value, entry: "Cc1cc2nc(N[C@@H](C)c3cccnc3)nc(C(=O)NCCO)c2s1"
-- reply 6.30 to 7.00

-- ask Provide measured pIC50 value, entry: "CNc1cc2nc(N[C@@H](C)c3cccnc3)nc(C(=O)N3CCCC3)c2s1"
-- reply 6.30 to 7.00

-- ask Provide measured pIC50 value, entry: "C[C@H](Nc1nc(C(=O)N2CCC2)c2sc(N)cc2n1)c1ccccn1"
-- reply 6.30 to 7.00

-- ask Provide measured pIC50 value, entry: "O=C(c1nc(NCc2ccc(C(F)(F)F)nc2)nc2ccsc12)N1CC[C@H](O)C1"
-- reply < 6.30

-- ask Provide measured pIC50 value, entry: "CNC(=O)NCC1CN(C(=O)c2nc(N[C@@H](C)c3cncc(F)c3)nc3ccsc23)C1"
-- reply 6.30 to 7.00

-- ask Provide measured pIC50 value, entry: "O=C(NCc1cncc(F)c1)c1nc(NCc2cncc(F)c2)nc2ccsc12"
-- reply < 6.30

-- ask Provide measured pIC50 value, entry: "CCOc1ccc(CNc2nc(C(=O)NCCc3cccc(O)c3)c3sccc3n2)cn1"
-- reply 6.30 to 7.00

Hey, just so you know, these numbers are from patent US11254686B1.
